Exercise: state measured IC50 for each of the molecules provided.
# Test system: phosphorylation of Serine 473 in Akt
# Procedure summary: In Vitro Phospho-Ser473 Akt Assay in MDA-MB-468 cells
# Assay type: cell-based
# Condition details: Homo sapiens, MDA-MB-468, read-out: IC50 values against mTOR, phospho-Ser473 Akt assay, MDA-MB-468 cells

State the recorded IC50 for this entry: C[C@H]1COCCN1c1nc(N2CCOC[C@@H]2C)c2ccc(-c3cccc(C(=O)NC4CCOCC4)c3)nc2n1 [Example 3i] < 100 nM

// next record C[C@H]1COCCN1c1nc(N2CCOC[C@@H]2C)c2ccc(-c3cccc(CNC4CC4)c3)nc2n1 [Example 4j] < 100 nM

// next record COCC(C)Nc1nc(N2CCOC[C@@H]2C)c2ccc(-c3ccc(OC)c(CO)c3)nc2n1 (stereo partly drawn) [Example 18ax] < 100 nM

// next record COCc1cc(-c2ccc3c(N4CCOC[C@@H]4C)nc(N4CCOC[C@@H]4C)nc3n2)ccc1F [Example 9a] < 300 nM

// next record COc1ccc(-c2ccc3c(N4CCOC[C@@H]4C)nc(N4CCCC(C(F)(F)F)C4)nc3n2)cc1CO (stereo partly drawn) [Example 18h] < 300 nM

// next record C[C@H]1COCCN1c1nc(N2CCOC[C@@H]2C)c2ccc(-c3cccc(C(=O)NCC(F)F)c3)nc2n1 [Example 3l] < 100 nM

// next record COc1ccc(-c2ccc3c(N4CCOC[C@@H]4C)nc(N4CCCC4C)nc3n2)cc1CO (stereo partly drawn) [Example 18ap] < 100 nM

// next record C[C@H]1COCCN1c1nc(N2CCOC[C@@H]2C)c2ccc(-c3ccc(N)nc3)nc2n1 [Example 1u] < 100 nM

// next record C[C@H]1COCCN1c1nc(N2CCOC[C@@H]2C)c2ccc(-c3ccc(S(C)(=O)=O)cc3)nc2n1 [Example 1am] < 300 nM

// next record COc1ccc(-c2ccc3c(N4CCOC[C@@H]4C)nc(N4CCC(N)CC4)nc3n2)cc1CO [Example 18ad] < 100 nM

// next record COc1ccc(-c2ccc3c(N4CCOC[C@@H]4C)nc(N(CCO)CCO)nc3n2)cc1CO [Example 18ck] < 100 nM

// next record COc1ccc(-c2ccc3c(N4CCOC[C@@H]4C)nc(N4CCOC[C@@H]4C)nc3n2)cc1CNCCO [Example 4ba] < 100 nM

// next record CON(C)C(=O)c1cc(-c2ccc3c(N4CCOC[C@@H]4C)nc(N4CCOC[C@@H]4C)nc3n2)ccc1F [Example 3y] < 100 nM

// next record COc1ccc(-c2ccc3c(N4CCOC[C@@H]4C)nc(N[C@@H](C)CO)nc3n2)cc1CO [Example 18bx] < 300 nM

// next record COc1ccc(-c2ccc3c(N4CCOC[C@@H]4C)nc(NCC(F)F)nc3n2)cc1CO [Example 18bz] < 300 nM

// next record COc1ccc(-c2ccc3c(N4CCOC[C@@H]4C)nc(-n4ccnc4)nc3n2)cc1CO [Example 18ay] < 300 nM

// next record C[C@H]1COCCN1c1nc(N2CCOC[C@@H]2C)c2ncc(-c3ccccc3)nc2n1 [Example 12d] < 300 nM

// next record COc1ccc(-c2ccc3c(N4CCOC[C@@H]4C)nc(N4CCCC(CO)C4)nc3n2)cc1CO (stereo partly drawn) [Example 18y] < 100 nM

// next record C[C@@H]1CN(c2nc(N3CCOC[C@@H]3C)c3ccc(-c4cccc(O)c4)nc3n2)C[C@H](C)O1 [Example 1bz] < 100 nM

// next record COCCN(CCOC)c1nc(N2CCOC[C@@H]2C)c2ccc(-c3ccc(OC)c(CO)c3)nc2n1 [Example 18cj] < 100 nM

// next record COC(=O)[C@@H]1CCCN1c1nc(N2CCOC[C@@H]2C)c2ccc(-c3ccc(OC)c(CO)c3)nc2n1 [Example 18ah] < 100 nM

// next record COc1ccc(-c2ccc3c(N4CCOC[C@@H]4C)nc(N4CCOCC4)nc3n2)cc1CO [Example 1l] < 100 nM

// next record C[C@H]1COCCN1c1nc(N2CCOC[C@@H]2C)c2ccc(-c3cccc(CNCC4CC4)c3)nc2n1 [Example 4n] < 100 nM

// next record COc1ccc(-c2ccc3c(N4CCOC[C@@H]4C)nc(N4CCCC(O)C4)nc3n2)cc1CO (stereo partly drawn) [Example 18k] < 100 nM

// next record C[C@H]1COCCN1c1nc(N2CCOC[C@@H]2C)c2ccc(-c3cccc(Cn4ccnc4)c3)nc2n1 [Example 4q] < 300 nM

// next record C[C@H]1COCCN1c1nc(N2CCOC[C@@H]2C)c2ccc(-c3cccnc3F)nc2n1 [Example 1p] < 300 nM

// next record C[C@H]1COCCN1c1nc(N2CCOC[C@@H]2C)c2ccc(-c3cccc(CNc4cc[nH]n4)c3)nc2n1 [Example 4p] < 300 nM

// next record CC(C)NCc1cc(-c2ccc3c(N4CCOC[C@@H]4C)nc(N4CCOC[C@@H]4C)nc3n2)ccc1F [Example 4w] < 100 nM

// next record COc1ccc(-c2ccc3c(N4CCOC[C@@H]4C)nc(N4CCOC[C@@H]4C)nc3n2)cc1CNC(C)CC(C)C (stereo partly drawn) [Example 4au] < 100 nM

// next record CCNCc1ccc(-c2ccc3c(N4CCOC[C@@H]4C)nc(N4CCOC[C@@H]4C)nc3n2)o1 [Example 7d] < 100 nM
